The reader will find reported E2F1 gene expression vs control cells with no drug treatment values listed item by item below.
- Tested on: Panc-1 cell line
- measurement protocol: Gene expression profile using RTQ-PCR
- Assay type: cell-based
- cond: Panc1, RTQ-PCR
quantity measured: E2F1 gene expression vs control cells with no drug treatment (log 2 fold ratio)

> print(dat)
                                   molecule       measured.on   unit.of.measure  reported.measurement
1  CN1CCC(c2c(O)cc(O)c3c(=O)cc(-c4ccccc4Cl)oc23)C(O)C1 (stereo not shown) [drawing 5]  Panc-1 cell line  log 2 fold ratio                 −0.62
2  Nc1ccn([C@@H]2O[C@H](CO)[C@@H](O)C2(F)F)c(=O)n1 [drawing 1]  Panc-1 cell line  log 2 fold ratio                  0.98
3  CN1CC[C@@H](c2c(O)cc(O)c3c(=O)cc(-c4ccc(C(F)(F)F)cc4Cl)oc23)[C@@H]1CO.Cl [drawing 3]  Panc-1 cell line  log 2 fold ratio                 −0.43
4  CC[C@H](CO)Nc1nc(NCc2ccccc2)c2ncn(C(C)C)c2n1 [drawing 2]  Panc-1 cell line  log 2 fold ratio                  0.03
